From: patent US11046700B2

Record form. Attribute: IC50. Fill in for each entry.
test system: S. mansoni adult worms; experiment: In vitro assay, S. mansoni adult worms; type: cell-based; conditions: Schistosoma mansoni; S. mansoni adult worms, in vitro; read-out: (a) Adult
Give bare numbers, in nM.

Worked examples, 2 compounds total:
CC(C)c1cc(-c2cn3c(-c4ccc5[nH]ncc5c4F)c(C(C)C)nc3cn2)ccc1F [Example 74]	4
CC(C)c1nn2cnc(-c3ccc(F)c(C(F)(F)F)c3)cc2c1-c1c(F)cc(O)cc1F [Example 47]	22

Pending compound:
Exercise: Give its IC50 value. Item: Fc1ccc(-c2cn3c(-c4ccc5[nH]ncc5c4F)c(C(F)(F)F)nc3cn2)cc1C1CC1 [Example 84]
Key: 12

* * *

tested on: HepG2 cell line; assay: Cytotoxicity against human HepG2 cell lines; type: cell-based
Record form. Attribute: (e) Cytotox HepG2. Fill in for each entry.
One number for each entry, in µM.

Fc1ccc(-c2cn3c(-c4ccc5[nH]ncc5c4F)c(C(F)(F)F)nc3cn2)cc1S(F)(F)(F)(F)F	11.1
CC(C)c1cc(-c2cn3c(-c4ccc5[nH]ncc5c4Cl)c(C(F)(F)F)nc3cn2)ccc1F	6.6

Exercise: Give its (e) Cytotox HepG2 value. Item: `CC(C)c1nc2cnc(-c3cccc(C(F)(F)F)c3)cn2c1-c1ccc(OP(=O)(O)O)cc1F`
Key: 9.2
